Parameter Z3 assay Rel Max FI: see the listing below.
assayed-target: Bombyx mori EcR (VP16 fusion, CVBE switch construct) (Bombyx mori, UniProt P49881)
Sequence (P49881 86-606): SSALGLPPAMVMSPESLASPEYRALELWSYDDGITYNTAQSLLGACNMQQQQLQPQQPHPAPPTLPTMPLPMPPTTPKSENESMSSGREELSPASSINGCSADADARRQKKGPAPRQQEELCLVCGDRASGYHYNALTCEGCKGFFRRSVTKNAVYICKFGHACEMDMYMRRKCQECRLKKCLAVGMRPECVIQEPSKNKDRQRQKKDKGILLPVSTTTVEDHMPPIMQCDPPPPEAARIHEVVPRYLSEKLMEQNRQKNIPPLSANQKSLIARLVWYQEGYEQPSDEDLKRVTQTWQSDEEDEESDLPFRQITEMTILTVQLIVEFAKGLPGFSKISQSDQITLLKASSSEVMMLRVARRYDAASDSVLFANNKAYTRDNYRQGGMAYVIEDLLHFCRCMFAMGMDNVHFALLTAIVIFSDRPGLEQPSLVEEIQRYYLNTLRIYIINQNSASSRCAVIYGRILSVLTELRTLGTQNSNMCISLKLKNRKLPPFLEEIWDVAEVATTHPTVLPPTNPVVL
Sequence (P19793 1-462 partner): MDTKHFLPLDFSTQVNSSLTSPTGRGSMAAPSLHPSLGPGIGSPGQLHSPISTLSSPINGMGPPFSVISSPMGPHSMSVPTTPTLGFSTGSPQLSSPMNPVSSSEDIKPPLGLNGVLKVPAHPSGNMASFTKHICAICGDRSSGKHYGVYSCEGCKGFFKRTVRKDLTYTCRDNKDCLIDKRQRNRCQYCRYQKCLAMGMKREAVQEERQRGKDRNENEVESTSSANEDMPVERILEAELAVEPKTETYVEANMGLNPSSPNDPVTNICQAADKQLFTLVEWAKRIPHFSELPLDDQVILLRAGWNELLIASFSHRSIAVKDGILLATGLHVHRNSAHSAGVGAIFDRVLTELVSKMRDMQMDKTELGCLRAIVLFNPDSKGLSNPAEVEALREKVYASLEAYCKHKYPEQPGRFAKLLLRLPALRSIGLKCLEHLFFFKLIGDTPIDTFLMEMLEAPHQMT
run-description: Z3 Assay (HEK-293 cells with CVBE and 6XEcRE LacZ, β-galactosidase reporter)
condition: maximum fold induction at any concentration relative to that of GS-E ligand; HEK-293 Z3 cells
The response must contain the number and no unit.

Examples with their reported Z3 assay Rel Max FI follow.
molecule	Z3 assay Rel Max FI
CCc1c(OC)cccc1C(=O)NN(C(=O)c1ccccc1[N+](=O)[O-])C(C)(C)C [RG-115330]	0.860
COc1ccc(C(=O)NN(C(=O)c2ccc(F)cc2Cl)C(C)(C)C)cc1 [RG-101057]	0.697
COc1cccc(C(=O)NN(C(=O)c2cc(Cl)c(F)c(Cl)c2)C(C)(C)C)c1C [RG-101382]	0.951
CCc1ccc(C(=O)NN(C(=O)c2cc(OC)c(C)c(OC)c2)C(C)(C)C)c(F)c1 [RG-115077]	0.911
CCc1c(C(=O)NN(C(=O)c2ccccc2OC)C(C)(C)C)ccc2c1OCCO2 [RG-100690]	1.008
Cc1ccc([N+](=O)[O-])c(C(=O)N(NC(=O)c2ccc3c(c2C)OCCO3)C(C)(C)C)c1 [RG-115384]	0.904
Cc1cc(C)cc(C(=O)N(NC(=O)c2ccc3ncsc3c2)C(C)(C)C)c1 [RG-101312]	0.955
CCc1c(OC)cccc1C(=O)NN(C(=O)c1cc2ccccc2n1C)C(C)(C)C [RG-115106]	0.457
CCc1ccc(C(=O)NN(C(=O)c2cc(C)c(C)c(Cl)c2)C(C)(C)C)cc1 [RG-101863]	0.953
Cc1ccc(C(=O)NN(C(=O)c2cc(C)cc(C)c2)C(C)(C)C)cc1 [RG-101542]	0.793

Prompt: Would you mind telling me what Z3 assay Rel Max FI value was observed for CCc1c(OC)cccc1C(=O)NN(C(=O)c1cc(C)cc(C=NO)c1)C(C)(C)C [RG-115625] ?
Response: 0.950

Prompt: Note, next up: CCc1c(OC)cccc1C(=O)NN(C(=O)c1cccc(F)c1)C(C)(C)C [RG-115515]
Response: 0.975

Prompt: Then COc1ccc(Cl)cc1C(=O)N(NC(=O)c1cccc(C)c1C)C(C)(C)C [RG-101178] ?
Response: 0.887

Prompt: Please answer likewise for COc1cc(C)cc(C(=O)N(NC(=O)c2cccc(OC)c2C)C(C)(C)C)c1 [RG-100767]
Response: 0.996

Prompt: What do you have for COc1cccc(C(=O)NN(C(=O)c2cc(C)ccc2[N+](=O)[O-])C(C)(C)C)c1C [RG-100569] ?
Response: 0.835

Prompt: What do you get for CCc1ccccc1C(=O)N(NC(=O)c1cccc(OC)c1C)C(C)(C)C [RG-101062] ?
Response: 0.992

Prompt: Another: CCCC(N(NC(=O)c1cccc(OC)c1C)C(=O)c1cc(OC)c(C)c(OC)c1)C(C)(C)C (stereo not shown) [RG-115824]
Response: 0.806

Prompt: CCc1ccc(C(=O)NN(C(=O)c2cc(Cl)nc(Cl)c2)C(C)(C)C)c(F)c1 [RG-115128] , same question.
Response: 0.538

---

assayed-target: GAL4 DBD-CfEcR(DEF)/VP16AD-MmRXRE (Choristoneura fumiferana, UniProt O77240)
run-description: 13B3 Assay (CHO stable cell line, luciferase reporter)
Recorded measurements of pEC50, one per entry
Please report pEC50 as the negative decimal logarithm of the molar concentration, giving only the number.

CCc1c(C(=O)NN(C(=O)c2cc(C)cc(Cl)c2)C(C)(C)C)ccc2c1OCCO2 6.83
COc1cc(C(=O)N(NC(=O)c2ccc3c(c2C)OCCO3)C(C)(C)C)cc(OC)c1C 7.06
Cc1c(C(=O)NN(C(=O)c2cc(F)c(F)c(F)c2)C(C)(C)C)ccc2c1CCCO2 6.57

# context switch: different compound, same pEC50
Prompt: Identify the measured pEC50 of CCc1c(OC)cccc1C(=O)NN(C(=O)c1cc(C)cc(C)c1)C(C)(C)C=NO for GAL4 DBD-CfEcR(DEF)/VP16AD-MmRXRE (Choristoneura fumiferana, UniProt O77240).
Response: 4.57

---

assayed-target: Bombyx mori EcR (VP16 fusion, CVBE switch construct) (Bombyx mori, UniProt P49881)
run-description: Z3 Assay (HEK-293 cells with CVBE and 6XEcRE LacZ, β-galactosidase reporter)
condition: 33 uM ligand; ligand treated / DMSO treated cells; average of two wells
Recorded Fold Induction, Z3 Assay, 33 uM for the following compounds
Response field accepts a number only; no unit should be typed.

Some solved cases for reference:
compound	measure-name	value-observed
COc1cc(C(=O)N(NC(=O)c2ccc3c(c2C)CCCO3)C(C)(C)C)cc(OC)c1C [RG-115055]	Fold Induction, Z3 Assay, 33 uM	617
CCc1ccc(C(=O)NN(C(=O)c2cc(C)cc(Cl)c2)C(C)(C)C)cc1 [RG-101774]	Fold Induction, Z3 Assay, 33 uM	429
CCc1c(C(=O)NN(C(=O)c2ccc(F)c(F)c2F)C(C)(C)C)ccc2c1OCCO2 [RG-115580]	Fold Induction, Z3 Assay, 33 uM	615

Prompt: Any idea what its Fold Induction, Z3 Assay, 33 uM is? The compound is Cc1cc(C)cc(C(=O)N(NC(=O)c2cccc(I)c2C)C(C)(C)C)c1 [RG-101734]
Response: 951

Prompt: Try this compound next: CCc1c(OC)cccc1C(=O)NN(C(=O)c1cc(C)cc(C)c1)C(CC)C(C)(C)C (centres unmarked) [RG-115832]
Response: 621

Prompt: Then this compound: CCc1c(OC)cccc1C(=O)NN(C(=O)c1cc(C)n(-c2ccccc2)n1)C(C)(C)C [RG-115721]
Response: 2

Prompt: Another compound to look at: COc1cnccc1C(=O)N(NC(=O)c1cccc(O)c1C)C(C)(C)C [RG-115595]
Response: 1067

Prompt: What do you get for CCc1c(OC)cccc1C(=O)NN(C(=O)c1ccc(Cl)cc1[N+](=O)[O-])C(C)(C)C [RG-115647] ?
Response: 510

---

assayed-target: GAL4 DBD (1-147)-CfEcR(DEF)/VP16AD-βRXREF-LmUSPEF (Choristoneura fumiferana, UniProt O77240)
run-description: cell-based
condition: 33 uM ligand; RLU ligand treated / RLU DMSO treated cells; average of two wells
measure-name: Fold Induction, 27-63 Assay, 33 uM
Just the number, please.

Below are worked cases with known answers.
molecule	Fold Induction, 27-63 Assay, 33 uM
CCc1c(C(=O)NN(C(=O)c2cc(C)cc(C)c2)C(C)(C)C)ccc2c1OC(C)O2 (centres unmarked)	1896
CCc1c(C(=O)NN(C(=O)c2cccc(C)c2)C(C)(C)C)ccc2c1OCCO2	1459
CCc1c(C(=O)NN(C(=O)c2ccccc2OC)C(C)(C)C)ccc2c1OCCO2 [RG-100690]	1047

Prompt: # input molecule: CCc1c(OC)cccc1C(=O)NN(C(=O)c1cc(C)cc(C)c1)C(C)(C)C=NCCO ; wanted: its Fold Induction, 27-63 Assay, 33 uM
Response: 1155

Prompt: Then CCc1ccc(C(=O)NN(C(=O)c2cc(C)c(C)c(Cl)c2)C(C)(C)C)cc1 ?
Response: 636

Prompt: Could you do the same for CCc1c(C(=O)NN(C(=O)c2ccccc2)C(C)(C)C)ccc2c1OCOC2 , please?
Response: 1069

Prompt: And CCc1c(C(=O)NN(C(=O)c2ccc(F)c(F)c2F)C(C)(C)C)ccc2c1OCCO2 ?
Response: 1031

Prompt: COc1cccc(C(=O)NN(C(=O)c2ccc(C(F)(F)F)n(C)c2=O)C(C)(C)C)c1C , same question.
Response: 1895
